Assay: Chemical stability under heating
Settings: thermal stability, 2 weeks, 70° C.
Protocol: The anhydride and each of the hydrates was introduced into a glass vial and maintained at 70° C.
Measurement name: remaining at 336 h (%)
Answers are plain numbers, in %.

Reported remaining at 336 h ( CON=C1CN(c2nc3c(cc2F)c(=O)c(C(=O)O)cn3C2CC2)CC1CN (stereo not shown) [Anhydrate] ) = 97

====

Experiment: Pharmacokinetic test
Type: in vivo
Settings: rat, blood, 20 mg/kg; PO, SD rats (male); read-out: T1/2 (biological half life) (converted)
Measurement name: half-life (h)
Numbers only, in h.

CON=C1CN(c2c(F)cc3c(=O)c(C(=O)O)cn(C4CC4)c3c2F)CC1CN (centres unmarked) ... 3.93

// moving on: another record for half-life
Reported half-life ( CC(C)(C)ON=C1CN(c2nc3c(cc2F)c(=O)c(C(=O)O)cn3C2CC2)CC1CN (centres unmarked) ) = 6.69

====

Experiment: physchem
Conditions: phosphate buffered solution, pH 7
Measurement name: solubility (µg/mL)
Numbers only, in µg/mL.

Reported solubility ( CON=C1CN(c2nc3c(cc2F)c(=O)c(C(=O)O)cn3C2CC2)CC1CN (stereo not shown) [Tartarate] ) = 6700

====

Field: Cmax. Provide a value for each of the compounds that follow.
Experiment: Pharmacokinetic test
Type: in vivo
Details: rat, blood, 20 mg/kg; PO, SD rats (male); read-out: Cmax (maximum blood concentration)
Please state the number and follow it with the unit.

CON=C1CN(c2c(F)cc3c(=O)c(C(=O)O)cn(C4CC4)c3c2F)CC1CN (centres unmarked) ... 370 ng/mL

// moving on: another record for Cmax
Reported Cmax ( CC(C)(C)ON=C1CN(c2nc3c(cc2F)c(=O)c(C(=O)O)cn3C2CC2)CC1CN (centres unmarked) ) = 4890 ng/mL

====

Field: MIC. Provide a value for each of the compounds that follow.
Tested on: Escherichia coli 10536
Assay: In vitro antibacterial activity (MIC, agar dilution), Biological Example 1
Type: cell-based
Details: 18 h; Escherichia coli 10536, Table 25; read-out: Minimum Inhibitory Concentration

CON=C1CN(c2c(F)cc3c(=O)c(C(=O)O)cn(C4CC4)c3c2F)CC1CN (stereo not drawn) ... ≤ 8 ng/mL
NCC1CN(c2nc3c(cc2F)c(=O)c(C(=O)O)cn3C2CC2)CC1=NOCc1ccccc1 (stereo not drawn) ... ≤ 8 ng/mL

// moving on: another record for MIC
Reported MIC ( CC(C)ON=C1CN(c2nc3c(cc2F)c(=O)c(C(=O)O)cn3C2CC2)CC1CN (stereo not drawn) ) = ≤ 8 ng/mL

====

Assay: physchem
Settings: phosphate buffered solution, pH 2
Measurement name: solubility (mg/mL)
One number for each entry, in mg/mL.

Reported solubility ( CON=C1CN(c2nc3c(cc2F)c(=O)c(C(=O)O)cn3C2CC2)CC1CN (stereo not shown) [Tartarate] ) = 15.4

====

Field: Tmax. Provide a value for each of the compounds that follow.
Experiment: Pharmacokinetic test
Type: in vivo
Conditions: rat, blood, 20 mg/kg; PO, SD rats (male); read-out: Tmax (time showing maximum blood concentration)
Give bare numbers, in h.

CON=C1CN(c2c(F)cc3c(=O)c(C(=O)O)cn(C4CC4)c3c2F)CC1CN (centres unmarked) ... 0.51

Reported Tmax ( CC(C)(C)ON=C1CN(c2nc3c(cc2F)c(=O)c(C(=O)O)cn3C2CC2)CC1CN (centres unmarked) ) = 2.18

====

Test system: Escherichia coli TEM5 3739E
Experiment: microbe, parasite or virus in culture
Type: cell-based
Conditions: TEM53739E, 18 h, read-out: Minimum Inhibitory Concentration
Field: MIC. Provide a value for each of the compounds that follow.
Please state the number and follow it with the unit.

C#CCON=C1CN(c2nc3c(cc2F)c(=O)c(C(=O)O)cn3C2CC2)CC1CN (centres unmarked) [Example 103] ... 0.063 µg/mL
NCC1CN(c2c(F)c(N)c3c(=O)c(C(=O)O)cn(C4CC4)c3c2F)CC1=NOCc1ccccc1 (centres unmarked) [Example 56] ... 0.25 µg/mL
NCC1CN(c2nc3c(cc2F)c(=O)c(C(=O)O)cn3C2CC2)CC1=NOCc1ccccc1 (centres unmarked) [Example 1] ... 0.063 µg/mL
CC(C)CON=C1CN(c2nc3c(cc2F)c(=O)c(C(=O)O)cn3C2CC2)CC1CN (centres unmarked) [Example 102] ... 0.25 µg/mL
NCC1CN(c2cc3c(cc2F)c(=O)c(C(=O)O)cn3C2CC2)CC1=NOCc1ccccc1 (centres unmarked) [Example 12] ... 0.25 µg/mL
CON=C1CN(c2cc3c(cc2F)c(=O)c(C(=O)O)cn3C2CC2)CC1CN (centres unmarked) [Example 179] ... 0.063 µg/mL
CON=C1CN(c2c(F)cc3c(=O)c(C(=O)O)cn(C4CC4)c3c2F)CC1CN (centres unmarked) [Example 177] ... 0.13 µg/mL
C#CCCON=C1CN(c2nc3c(cc2F)c(=O)c(C(=O)O)cn3C2CC2)CC1CN (centres unmarked) [Example 104] ... 0.13 µg/mL

Count: 6. Required value per item: MIC.
1. CC1COc2c(N3CCN(C)CC3)c(F)cc3c(=O)c(C(=O)O)cn1c23 (centres unmarked) [OFLX, ofloxacin, reference compound]
2. CON=C1CN(c2nc3c(cc2F)c(=O)c(C(=O)O)cn3C2CC2)CC1CN (centres unmarked) [Example 180]
3. CC(C)(C)ON=C1CN(c2nc3c(cc2F)c(=O)c(C(=O)O)cn3C2CC2)CC1CN (centres unmarked) [Example 89]
4. CON=C1CN(c2c(F)cc3c(=O)c(C(=O)O)cn(C4CC4)c3c2Cl)CC1CN (centres unmarked) [Example 178]
5. CC(C)ON=C1CN(c2nc3c(cc2F)c(=O)c(C(=O)O)cn3C2CC2)CC1CN (centres unmarked) [Example 97]
6. NCC1CN(c2c(F)cc3c(=O)c(C(=O)O)cn(C4CC4)c3c2Cl)CC1=NOCc1ccccc1 (centres unmarked) [Example 34]

Result string:
1. 0.5 µg/mL
2. 0.13 µg/mL
3. 0.13 µg/mL
4. 0.5 µg/mL
5. 0.063 µg/mL
6. 0.5 µg/mL

====

Field: Moisture Content. Provide a value for each of the molecules that follow.
Assay: Moisture content according to hydration number
Format: physicochemical
Conditions: actual moisture content, methanesulfonate hydrates

Count: 3. Required value per item: Moisture Content.
1. CON=C1CN(c2nc3c(cc2F)c(=O)c(C(=O)O)cn3C2CC2)CC1CN (centres unmarked) [1 hydrate]
2. CON=C1CN(c2nc3c(cc2F)c(=O)c(C(=O)O)cn3C2CC2)CC1CN (centres unmarked) [2 hydrate]
3. CON=C1CN(c2nc3c(cc2F)c(=O)c(C(=O)O)cn3C2CC2)CC1CN (centres unmarked) [3.5 hydrate]

Result string:
2-4%
6-8%
11-12%

Count: 2. Required value per item: Moisture Content.
1. CON=C1CN(c2nc3c(cc2F)c(=O)c(C(=O)O)cn3C2CC2)CC1CN (centres unmarked) [2.5 hydrate]
2. CON=C1CN(c2nc3c(cc2F)c(=O)c(C(=O)O)cn3C2CC2)CC1CN (centres unmarked) [4 hydrate]

Result string:
1: 8-9%; 2: 12-13%

====

Assay: physchem
Conditions: phosphate buffered solution, pH 2, Water Solubility, phosphate buffered solution (pH 2)
Measurement name: solubility

Reported solubility ( CON=C1CN(c2nc3c(cc2F)c(=O)c(C(=O)O)cn3C2CC2)CC1CN.CS(=O)(=O)O (stereo not shown) [Methanesulfonate] ) = > 20 mg/mL

====

Tested on: Staphylococcus epidermidis 887E
Test: In vitro antibacterial activity (MIC, agar dilution), Biological Example 1
Format: cell-based
Settings: 18 h, Table 25, read-out: Minimum Inhibitory Concentration
Measurement name: MIC

Count: 5. Required value per item: MIC.
1. C#CCON=C1CN(c2nc3c(cc2F)c(=O)c(C(=O)O)cn3C2CC2)CC1CN (centres unmarked)
2. CC1COc2c(N3CCN(C)CC3)c(F)cc3c(=O)c(C(=O)O)cn1c23 (centres unmarked) [OFLX, ofloxacin, reference compound]
3. CC(C)CON=C1CN(c2nc3c(cc2F)c(=O)c(C(=O)O)cn3C2CC2)CC1CN (centres unmarked)
4. NCC1CN(c2c(F)cc3c(=O)c(C(=O)O)cn(C4CC4)c3c2Cl)CC1=NOCc1ccccc1 (centres unmarked)
5. C#CCCON=C1CN(c2nc3c(cc2F)c(=O)c(C(=O)O)cn3C2CC2)CC1CN (centres unmarked)

Result string:
["≤ 8 ng/mL", "250 ng/mL", "≤ 8 ng/mL", "≤ 8 ng/mL", "16 ng/mL"]

Count: 3. Required value per item: MIC.
1. NCC1CN(c2c(F)c(N)c3c(=O)c(C(=O)O)cn(C4CC4)c3c2F)CC1=NOCc1ccccc1 (centres unmarked)
2. NCC1CN(c2cc3c(cc2F)c(=O)c(C(=O)O)cn3C2CC2)CC1=NOCc1ccccc1 (centres unmarked)
3. CON=C1CN(c2nc3c(cc2F)c(=O)c(C(=O)O)cn3C2CC2)CC1CN (centres unmarked)

Result string:
≤ 8 ng/mL
≤ 8 ng/mL
≤ 8 ng/mL

These data points were gathered from patent US5776944A.
